B1: ANKRD40 (parent)
chain: VRIQNPSLRENDFIEIELDRQELT

Variants of: B1
Assay: protein stability index of a GFP-peptide fusion (GPS, HEK-293T) (PSI 1-6); higher = more stable;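 also: lentivirally expressed fusions sorted by FACS into six bins by GFP to DsRed ratio, PSI derived from sequencing read proportions per bin multiplied by bin number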
Details: c terminus: a fixed tail appended
Consider the following variants and their measured protein stability index readings.
Just the number, please, no unit attached.

Consider the reported protein stability index for these variants:
E22F 2.47
E17C 1.65
D19W 1.54

Moving on to the next variant.
Suppose we examine the variant `Q21N` ; what protein stability index value has been reported? 2.99
